// data source = patent US7482379B2

Molecular target: UniProtKB P55211
Sequence (P55211 1-315 limits assumed): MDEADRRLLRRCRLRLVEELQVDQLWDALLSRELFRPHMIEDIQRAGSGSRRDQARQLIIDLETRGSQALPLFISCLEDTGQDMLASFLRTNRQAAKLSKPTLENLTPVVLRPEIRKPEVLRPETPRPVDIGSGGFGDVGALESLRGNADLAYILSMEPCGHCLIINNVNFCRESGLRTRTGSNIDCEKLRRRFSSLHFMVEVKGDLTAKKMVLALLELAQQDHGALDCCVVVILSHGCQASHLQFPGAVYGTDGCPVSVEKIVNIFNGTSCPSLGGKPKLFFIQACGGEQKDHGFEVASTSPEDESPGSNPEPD
Sequence (P55211 331-416 limits assumed): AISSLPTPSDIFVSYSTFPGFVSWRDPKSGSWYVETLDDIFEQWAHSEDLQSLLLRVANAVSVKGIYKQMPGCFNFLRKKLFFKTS
Assay: Caspase-9 progress curve inhibition assay
Details: second-order rate constant; Ac-LEHD-AFC substrate; Hepes buffer pH 7.0 with 0.7 M sodium citrate
quantityName: k2 Caspase-9 (M⁻¹ s⁻¹)
A number alone suffices; assume M⁻¹ s⁻¹.

## Input Fill blank: measured k2 Caspase-9 of the compound CC[C@H](C)[C@H](NC(=O)OCc1ccccc1)C(=O)N[C@@H](CCC(=O)O)C(=O)N[C@H](C(=O)NN(CC(=O)O)C(=O)/C=C/C(=O)NCCc1ccccc1)[C@@H](C)O (relative stereo) [Cbz-Ile-Glu-Thr-AAsp-CH═CH—CONHCH2CH2Ph] is ____.
## Output 615

## Input Fill blank: measured k2 Caspase-9 of the compound CC(C)[C@H](NC(=O)OCc1ccccc1)C(=O)NN(CC(=O)O)C(=O)/C=C/C(=O)NCc1ccccc1 (stereo in doubt) [Cbz-Val-AAsp-CH═CH—CONHCH2Ph] is ____.
## Output 20

## Input Fill blank: measured k2 Caspase-9 of the compound CC[C@H](C)[C@H](NC(=O)OCc1ccccc1)C(=O)N[C@@H](CCC(=O)O)C(=O)N[C@H](C(=O)NN(CC(=O)O)C(=O)/C=C/C(=O)N(C)CCc1ccccc1)[C@@H](C)O (relative stereo) is ____.
## Output 760

###

What kinact/KI was measured for each of the following?
Molecular target: S. mansoni legumain (Schistosoma mansoni, UniProt P09841, N192C)
Sequence (P09841 32-291 N192C): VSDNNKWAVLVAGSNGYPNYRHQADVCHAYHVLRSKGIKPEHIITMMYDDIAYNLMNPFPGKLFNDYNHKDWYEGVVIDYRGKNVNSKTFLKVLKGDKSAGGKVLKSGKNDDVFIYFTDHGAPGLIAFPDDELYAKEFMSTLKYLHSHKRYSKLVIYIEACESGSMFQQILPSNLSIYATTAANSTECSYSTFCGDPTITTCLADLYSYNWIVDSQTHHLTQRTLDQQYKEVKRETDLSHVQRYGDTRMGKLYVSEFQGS
Assay: S. mansoni legumain (SmAE) inhibition assay
Format: biochemical
Conditions: read-out: kobs/[I]
A number alone suffices; assume M⁻¹ s⁻¹.

## Input Fill blank: measured kinact/KI of the compound `C[C@H](NC(=O)OCc1ccccc1)C(=O)N[C@@H](C)C(=O)NN(CC(N)=O)C(=O)/C=C/C(=O)N(Cc1ccccc1)Cc1cccc2ccccc12` is ____.
## Output 6180

## Input Fill blank: measured kinact/KI of the compound `C[C@H](NC(=O)OCc1ccccc1)C(=O)N[C@@H](C)C(=O)NN(CC(N)=O)C(=O)/C=C/C(=O)N(Cc1ccccc1)Cc1ccccc1` is ____.
## Output 5800

## Input Fill blank: measured kinact/KI of the compound `C[C@H](NC(=O)OCc1ccccc1)C(=O)N[C@@H](C)C(=O)NN(CC(N)=O)C(=O)/C=C/C(=O)N(Cc1ccccc1)Cc1ccc2ccccc2c1` is ____.
## Output 6100

## Input Fill blank: measured kinact/KI of the compound `C[C@H](NC(=O)OCc1ccccc1)C(=O)N[C@@H](C)C(=O)NN(CC(N)=O)C(=O)/C=C/C(=O)N(C)Cc1cccc2ccccc12` is ____.
## Output 16900

###

Molecular target: Caspase-10 (Homo sapiens)
Sequence (Q92851 220-415 limits assumed): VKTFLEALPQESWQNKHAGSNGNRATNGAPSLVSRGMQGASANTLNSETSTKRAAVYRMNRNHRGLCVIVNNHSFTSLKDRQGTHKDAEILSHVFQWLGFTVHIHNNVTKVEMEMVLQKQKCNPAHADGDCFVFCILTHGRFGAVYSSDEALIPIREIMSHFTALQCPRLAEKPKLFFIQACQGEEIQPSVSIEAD
Sequence (Q92851 416-521 limits assumed): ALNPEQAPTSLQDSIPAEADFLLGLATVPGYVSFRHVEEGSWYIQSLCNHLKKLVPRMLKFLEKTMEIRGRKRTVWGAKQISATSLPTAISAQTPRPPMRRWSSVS
Assay: Caspase-10 progress curve inhibition assay
Settings: second-order rate constant; Ac-DEVD-AMC substrate; Hepes/PEG buffer pH 7.0
What k2 Caspase-10 was measured for each of the following?

## Input Observed k2 Caspase-10 on Caspase-10 (Homo sapiens) for CC(C)[C@H](NC(=O)[C@H](CCC(=O)O)NC(=O)[C@H](CC(=O)O)NC(=O)OCc1ccccc1)C(=O)NN(CC(=O)O)C(=O)/C=C/C(=O)NCc1ccccc1 (relative stereo) , please.
## Output 19,400 M^−1s^−1

## Input Observed k2 Caspase-10 on Caspase-10 (Homo sapiens) for CC[C@H](C)[C@H](NC(=O)OCc1ccccc1)C(=O)N[C@@H](CCC(=O)O)C(=O)N[C@H](C(=O)NN(CC(=O)O)C(=O)/C=C/C(=O)N(C)Cc1ccccc1)[C@@H](C)O (relative stereo) , please.
## Output 8,500 M^−1s^−1

## Input Observed k2 Caspase-10 on Caspase-10 (Homo sapiens) for CCOC(=O)/C=C/C(=O)N(CC(=O)O)NC(=O)[C@@H](NC(=O)OCc1ccccc1)C(C)C (stereo in doubt) , please.
## Output 389 M⁻¹ s⁻¹

## Input Observed k2 Caspase-10 on Caspase-10 (Homo sapiens) for CC(C)C[C@H](NC(=O)OCc1ccccc1)C(=O)N[C@@H](CCC(=O)O)C(=O)N[C@H](C(=O)NN(CC(=O)O)C(=O)/C=C/C(=O)N(C)Cc1ccccc1)[C@@H](C)O (relative stereo) , please.
## Output 8,430 M^−1s^−1
